measurement target: Amine oxidase [flavin-containing] A (Homo sapiens, UniProt P21397)
Sequence (P21397 whole entry): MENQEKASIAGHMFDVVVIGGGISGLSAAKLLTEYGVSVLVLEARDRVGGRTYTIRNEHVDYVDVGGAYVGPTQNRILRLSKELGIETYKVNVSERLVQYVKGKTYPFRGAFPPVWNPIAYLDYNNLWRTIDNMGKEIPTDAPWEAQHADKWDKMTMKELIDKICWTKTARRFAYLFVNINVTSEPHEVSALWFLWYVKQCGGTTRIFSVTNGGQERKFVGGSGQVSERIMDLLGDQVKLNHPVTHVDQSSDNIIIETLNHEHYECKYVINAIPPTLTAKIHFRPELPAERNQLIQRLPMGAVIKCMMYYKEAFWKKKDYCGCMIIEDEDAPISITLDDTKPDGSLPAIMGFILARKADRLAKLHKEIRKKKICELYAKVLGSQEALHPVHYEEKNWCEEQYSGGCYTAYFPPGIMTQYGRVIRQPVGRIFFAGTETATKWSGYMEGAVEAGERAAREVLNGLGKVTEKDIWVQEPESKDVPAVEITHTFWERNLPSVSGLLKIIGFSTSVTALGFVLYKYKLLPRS
observable: Ki (nM)
Numbers only, in nM.

# get_value(readout= Ki, system= Amine oxidase [flavin-containing] A (Homo sapiens, UniProt P21397)) for CN(C)c1ccc(/C=N/NC(N)=S)cc1 970

====

measurement target: Amine oxidase [flavin-containing] A (Homo sapiens)
pIC50: −log10 of the molar value.
Hi there, I'd appreciate the recorded pIC50 for every entry that follows.

{"compound": "NC(=S)N/N=C/c1ccccc1F", "observable": "pIC50", "recorded measurement": "< 5.00"}
{"compound": "NC(=S)N/N=C/c1cccc(F)c1", "observable": "pIC50", "recorded measurement": "< 5.00"}

Hi there! I need pIC50 for each item below, if you can.
1. NC(=S)N/N=C/c1ccc(O)cc1
2. N/C(S)=N/N=C/c1ccc([N+](=O)[O-])cc1
3. CCc1ccc(/C=N/NC(N)=S)cc1
4. NC(=S)N/N=C/c1ccc(Br)cc1
5. NCCNC(=O)c1ccc(Cl)cn1 [LAZABEMIDE]
6. NC(=S)N/N=C/c1ccccc1
7. CN(C)c1ccc(/C=N/NC(N)=S)cc1
8. NC(=S)N/N=C/c1ccc(F)cc1

1. < 5.00
2. < 5.00
3. 5.22
4. < 5.00
5. < 4.10
6. < 5.00
7. 5.74
8. < 5.00

Hi team, please reply with pIC50 for each item in this list.
1. Cc1ccc(/C=N/NC(N)=S)cc1
2. COc1ccc(/C=N/NC(N)=S)cc1
3. N=C(S)N/N=C/c1ccc(C(F)(F)F)cc1

< 5.00
5.30
< 5.00

Find pIC50 (Amine oxidase [flavin-containing] A (Homo sapiens)) for the entry NC(=S)N/N=C/c1ccc(Cl)cc1 < 5.00

====

Species: Homo sapiens
assay name: Selectivity index, ratio of IC50 for MAOA (unknown origin) to IC50 for MAOB (unknown origin)
observable: Ratio IC50

Here are 2 compounds together with their reported answers.
{"compound smiles": "COc1ccc(/C=N/NC(N)=S)cc1", "Ratio IC50": "< 0.5"}
{"compound smiles": "NC(=S)N/N=C/c1ccccc1F", "Ratio IC50": "> 1.31"}

Respectfully, I request Ratio IC50 for each entry included below.
1. NC(=S)N/N=C/c1cccc(F)c1
2. N/C(S)=N/N=C/c1ccc([N+](=O)[O-])cc1
3. CCc1ccc(/C=N/NC(N)=S)cc1

> 37
> 6.99
< 0.6

====

measurement target: Amine oxidase [flavin-containing] A (Homo sapiens)
assay name: Inhibition of MAOA (unknown origin) assessed as residual activity at 10 uM using kynuramine as substrate preincubated for 30 mins followed by substrate addition relative to control
experimental setup: read-out: Activity
Rule for this label: Met means activity at 10 µM is less than 80%; Not met means activity at 10 µM is at least 80%.

Example entries and their recorded answers appear below.
{"compound smiles": "CCc1ccc(/C=N/NC(N)=S)cc1", "label value": "Met"}
{"compound smiles": "NC(=S)N/N=C/c1ccc(Cl)cc1", "label value": "Met"}
{"compound smiles": "N/C(S)=N/N=C/c1ccc([N+](=O)[O-])cc1", "label value": "Met"}
{"compound smiles": "NC(=S)N/N=C/c1ccc(Br)cc1", "label value": "Met"}
{"compound smiles": "NC(=S)N/N=C/c1ccccc1F", "label value": "Met"}
{"compound smiles": "Cc1ccc(/C=N/NC(N)=S)cc1", "label value": "Met"}

Just wondering, is activity at 10 µM of N=C(S)N/N=C/c1ccc(C(F)(F)F)cc1 below 80%? Not met

Next up: COc1ccc(/C=N/NC(N)=S)cc1 Met

Check NC(=S)N/N=C/c1ccccc1 too. Not met

Please do the same for NC(=S)N/N=C/c1cccc(F)c1 as well. Met

====

pIC50: −log10 of the molar value.
What follows is a collection of pIC50 values obtained with Amine oxidase [flavin-containing] B (Homo sapiens, UniProt P27338).
Sequence (P27338 whole entry): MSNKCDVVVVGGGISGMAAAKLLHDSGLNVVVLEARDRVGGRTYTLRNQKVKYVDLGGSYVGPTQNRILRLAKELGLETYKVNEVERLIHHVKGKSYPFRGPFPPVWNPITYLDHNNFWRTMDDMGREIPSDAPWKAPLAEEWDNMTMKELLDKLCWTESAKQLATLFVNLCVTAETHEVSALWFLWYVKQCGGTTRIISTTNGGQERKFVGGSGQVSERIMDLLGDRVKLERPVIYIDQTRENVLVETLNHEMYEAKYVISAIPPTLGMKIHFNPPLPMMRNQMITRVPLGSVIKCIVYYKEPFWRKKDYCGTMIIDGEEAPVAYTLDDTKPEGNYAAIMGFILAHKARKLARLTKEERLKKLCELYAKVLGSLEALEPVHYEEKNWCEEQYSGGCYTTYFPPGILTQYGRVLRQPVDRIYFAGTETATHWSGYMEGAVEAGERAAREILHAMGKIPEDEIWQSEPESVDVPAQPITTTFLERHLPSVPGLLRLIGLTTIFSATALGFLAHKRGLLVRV

{"compound smiles": "NC(=S)N/N=C/c1ccccc1", "measurement target": "Amine oxidase [flavin-containing] B (Homo sapiens, UniProt P27338)", "pIC50": "< 5.00"}
{"compound smiles": "NC(=S)N/N=C/c1ccc(Br)cc1", "measurement target": "Amine oxidase [flavin-containing] B (Homo sapiens, UniProt P27338)", "pIC50": "< 5.00"}
{"compound smiles": "COc1ccc(/C=N/NC(N)=S)cc1", "measurement target": "Amine oxidase [flavin-containing] B (Homo sapiens, UniProt P27338)", "pIC50": "< 5.00"}

Kindly consider the entry below.
// lookup pIC50 for N/C(S)=N/N=C/c1ccc([N+](=O)[O-])cc1 5.84
